The reported numbers originate from patent US20250296984A1.

testTarget: T1, Bio-Peptide-1 (human cytomegalovirus (4N variant, e.g. …))
T1 construct: also called US28 ECD3 genotype 4N peptide
T1 peptide: Biotin-TKKNNQCMTDYDYLEVS
protocolNotes: ELISA, Bio-Peptide-1 coated
Where no end group is shown, it is not given here. The star is where a group is joined. Biotin = O=C1N[C@H]2[C@H](CS[C@H]2CCCCC(=O)*)N1
metric: absorbance
Lab note: write the figure by itself, no unit.

Worked cases, absorbance given:
[[record]]
binder = "US28-14-4E4-1E8 (antibody, mouse IgG1, kappa, V domains shown) VH: EVKLVESGGDLVKPGGSLKLSCAASGFTFSSYAMSWVRQTPEKRLEWVASISSGGRTYYPDSVKGRFTISRDNARNILYLQMSSLRSEDTAIYYCARGGTRHSYGNGFDYWGQGTTLTVSS VL: QIVLSQSPTIMSASPGEKVTMTCSASSSVSYMHWYQQKSGTSPKRWIYDSSKLASGVPARFSGSGSGTSYSLTISSMEAEDAATYYCQQWTSNPPITFGAGTKLELKR"
recordednumber = 2.99

[[record]]
binder = "US28-13-1C10-1G9 (antibody, mouse IgG1, kappa, V domains shown) VH: EVKLVESGGGLVKPGGSLKLSCAASGFTFSSYAMSWVRQTPEKRLEWVASISSGGSTYYPDSVKGRFTISRDNARNILYLQMSSLRSEDTAMYYCARGGSTMITTGLGFAYWGQGTLVTVSA VL: QIVLTQSPAIMSASPGEKVTMTCSASSSVSYMHWYQQKSGTSPKRWIYDTSKLASGVPARFSGSGSGTSYSLTISSMEAEDAATYYCQQWSSNPPLTFGAGTKLELKR"
recordednumber = 3.11


Please find the next binder below.
Incoming: Reported absorbance, binder US28-13-1H3-1A10 (antibody, mouse IgG1, kappa, V domains shown, also called 14-1H3-1A10) VH: EVKLVESGGVLVKPGGSLKFSCAASGFTLSSHALSWVRQTPEKRLEWVASISSRGRTYYPDSVKGRFTVSRDNARNILYLQVSSLRSEDTAMYYCTRGGTHYSYGNGFDFWGQGTTLTVSS VL: QIVLTQSPAIMSASPGEKVTMTCSVSSSVSYMHWYQQKSGTSPKRWIYDTSKLASGVPARFSGSGSGTSYSLTISTMEAEDAATYYCQQWSNNPPITFGAGTKLELKR : ____
Outgoing: 3
